From: paper PMC5569935

# Assayed System: respiratory chain dehydrogenases NDH, SDH, and mGPDH
# Test Summary: Enzyme activity assays of mitochondrial dehydrogenases in frozen-thawed BAT mitochondria (spectrophotometry)
# Test Context: isolated BAT mitochondria, range over all three enzymes, read-out: IC50, inhibition of respiratory chain dehydrogenase enzyme activities (NDH, SDH, mGPDH)
pIC50: −log10 of the molar value.
Assay Metric: pIC50

Prompt: Output pIC50 of CN(C)C(=N)N=C(N)N [metformin, dimethyl biguanide]
Response: < 1.10
